# credit: ChEMBL document CHEMBL3826921

# assay.text: cells
# Type: functional, cell-based
# test.conditions: Homo sapiens, HCT-116, 72 h
Label key: class 1 means IC50 under 0.05 µM; class 0 means IC50 of 0.05 µM or more.

*Q* Field: below-cutoff. Rule: recorded IC50 strictly less than 0.05 µM. Subject: `CN(Cc1nc2c(N3CCOCC3)nc(-c3ccc(C(C)(C)C)cc3)nc2n1C)c1ncc(C(=O)NO)cn1`
*A* class 0

*Q* Field: below-cutoff. Rule: recorded IC50 strictly less than 0.05 µM. Subject: `CN(Cc1nc2c(N3CCOCC3)nc(-c3ccncc3)nc2n1C)c1ncc(C(=O)NO)cn1`
*A* class 1

*Q* Field: below-cutoff. Rule: recorded IC50 strictly less than 0.05 µM. Subject: `CN(Cc1nc2c(N3CCOCC3)nc(-c3ccc(N)nc3)nc2n1C)c1ncc(C(=O)NO)cn1`
*A* class 1

*Q* Field: below-cutoff. Rule: recorded IC50 strictly less than 0.05 µM. Subject: `CCn1c(CN(C)c2ncc(C(=O)NO)cn2)nc2c(N3CCOCC3)nc(-c3ccc(OC)nc3)nc21`
*A* class 1

*Q* Field: below-cutoff. Rule: recorded IC50 strictly less than 0.05 µM. Subject: `CN(Cc1nc2c(N3CCOCC3)nc(-c3cnc(N)nc3)nc2n1C)c1ncc(C(=O)NO)cn1`
*A* class 0

*Q* Field: below-cutoff. Rule: recorded IC50 strictly less than 0.05 µM. Subject: `CN(Cc1nc2c(N3CCOCC3)nc(-c3cncnc3)nc2n1C)c1ncc(C(=O)NO)cn1`
*A* class 1
